# Target desc: T1, human CD3 (human, UniProt P07766 23-207; P09693 23-182; P04234 22-171; P20963 22-164)
# T1 construct: whole, on cells; SP34 is described as an anti-human CD3e antibody; also called human TCR/CD3 complex; CD3 on human pan-T cells
# T1 sequence (P07766 23-207, chain 1 of 4): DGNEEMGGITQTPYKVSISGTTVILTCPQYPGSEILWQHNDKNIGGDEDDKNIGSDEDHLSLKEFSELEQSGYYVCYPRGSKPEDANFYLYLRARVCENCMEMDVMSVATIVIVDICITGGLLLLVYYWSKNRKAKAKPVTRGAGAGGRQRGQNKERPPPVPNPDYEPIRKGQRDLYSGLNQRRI
# T1 sequence (P09693 23-182, chain 2 of 4): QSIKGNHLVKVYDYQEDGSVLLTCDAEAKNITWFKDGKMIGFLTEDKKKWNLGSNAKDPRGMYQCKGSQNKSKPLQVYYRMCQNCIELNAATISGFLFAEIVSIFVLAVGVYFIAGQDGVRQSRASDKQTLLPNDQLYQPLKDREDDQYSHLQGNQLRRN
# T1 sequence (P04234 22-171, chain 3 of 4): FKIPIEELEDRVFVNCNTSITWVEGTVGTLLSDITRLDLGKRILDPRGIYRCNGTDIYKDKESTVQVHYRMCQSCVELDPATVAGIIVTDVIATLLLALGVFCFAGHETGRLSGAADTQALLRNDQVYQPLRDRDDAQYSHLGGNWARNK
# T1 sequence (P20963 22-164, chain 4 of 4): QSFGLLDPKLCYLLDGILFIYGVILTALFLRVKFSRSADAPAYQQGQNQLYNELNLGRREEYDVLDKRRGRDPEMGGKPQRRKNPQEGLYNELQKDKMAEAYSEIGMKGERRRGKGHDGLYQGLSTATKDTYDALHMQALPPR
# Assay name: flow cytometry on human pan-T cells; MFI at 7.4 or 10 µg/ml relative to PR000260
Parameter measured: binding result

**Query** Look at this binder and give its reported binding result. PR002833 (antibody, human IgG1, lambda, L234A L235A, V domains shown, humanized SP34 variant, IgG1 LALAPG; also called VH3234/VL7461 IgG) VH: EVQLLESGGGLVQPGGSLRLSCAASGFTFSTYAMNWVRQAPGKGLEWVSRIRSKYNNYATYYADSVKDRFTISRDNSKNTLYLQMNSLRAEDTAVYYCVRHGNFGNSYVSWFAYWGQGTLVTVSS VL: QAVVTQEPSLTVSPGGTVTLTCRSSTGAVTTSNYANWVQQKPGQAPRGLIGGTNKRAPWTPARFSGSLLGDKAALTLLGAQPEDEAEYFCALWYSNLWVFGGGTKLTVLG
**Result** binds

**Query** What measured binding result goes with PR003886 (antibody, human IgG1, lambda, L234A L235A, V domains shown, humanized SP34 variant, IgG1 LALA; also called VH3735/VL7461 IgG) VH: EVQLVESGGGLVQPGGSLKLSCAASGFTFSTYAMNWVRQASGKGLEWVGRIRSKYNNYATYYADSVKDRFTISRDDSKNTAYLQMNSLKTEDTAVYYCTRHGNFGNSYVSWFAYWGQGTLVTVSS VL: QAVVTQEPSLTVSPGGTVTLTCRSSTGAVTTSNYANWVQQKPGQAPRGLIGGTNKRAPWTPARFSGSLLGDKAALTLLGAQPEDEAEYFCALWYSNLWVFGGGTKLTVLG ?
**Result** binds

**Query** Would you kindly share the measured binding result for PR002742 (antibody, human IgG1, lambda, L234A L235A, V domains shown, humanized SP34 variant, IgG1 LALA; also called VH3730/VL7461 IgG) VH: EVQLVESGGGLVQPGGSLKLSCAASGFTFNTYAMNWVRQASGKGLEWVGRIRSKYNNYATYYADSVKDRFTISRDDSKNTAYLQMNSLKTEDTAVYYCTRHGNFGNSYVSWFAYWGQGTLVTVSS VL: QAVVTQEPSLTVSPGGTVTLTCRSSTGAVTTSNYANWVQQKPGQAPRGLIGGTNKRAPWTPARFSGSLLGDKAALTLLGAQPEDEAEYFCALWYSNLWVFGGGTKLTVLG ?
**Result** binds
